assay: P. aeruginosa biofilm formation inhibitors, primary screen, PAO1 strain, BacTiter-Glo luminescence, LB-PBS (AID 1144); details: 12 h, higher = more signal

| compound | z-score |
| --- | --- |
| CCOc1cc(C(O)C2C=CC3C(=O)N(c4ccccc4)C(=O)C3N2Nc2ccccc2)ccc1O (stereo unspecified) | -0.802 |
| COC(=O)C(CC#Cc1ccc2c(c1)[C@]1(C(=O)N2)[C@H](c2ccc(O)cc2)N2[C@H](c3ccccc3)[C@H](c3ccccc3)OC(=O)[C@H]2[C@@H]1C(=O)Nc1nc2ccccc2s1)C(=O)OC | -1.45 |
| COc1ccc(CCN2C(=O)[C@@]3(Cc4ccccc42)c2ccccc2C(=O)N(Cc2ccccc2C(F)(F)F)[C@H]3c2ccc(CO)cc2)cc1 | -1.41 |
| C=CCOC(=O)[C@@H]1[C@H]2C(=O)O[C@H](c3ccccc3)[C@H](c3ccccc3)N2[C@H](c2ccc(OCCOC(=O)[C@@H]3C[C@@H]4C(=O)N[C@@H](CCCC[N+](C)(C)C)C(=O)N4[C@@H]3c3cccc(OCCO)c3)cc2)[C@@]12C(=O)Nc1ccc(I)cc12 | -1.22 |
| COCCCNC(=O)C1N=C(c2ccc(OCCCO)cc2)N(c2ccccc2)O1 (stereo unspecified) | 0.708 |
| O=C(NCc1ccccc1)[C@@H]1c2ccccc2C(=O)N(CC23CC4CC(CC(C4)C2)C3)[C@H]1c1ccc(CO)cc1 | 0.196 |

----------
assay: PSAC antagonists in infected red cells, primary screen, cell-based, P. falciparum Indochina, OD700, 2 h (AID 1155);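 also: lysis reports solute entry through the parasite surface anion channel PSAC; channel blockers reduce lysis of infected cells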; conditions: P. falciparum Indochina infected erythrocytes, osmotic lysis OD700; higher = more signal, called active from +8 up or from −8 down
Output MET for z-score not less than 1; output NOT MET otherwise.

| molecule | label class |
| --- | --- |
| CCCC=C(CCC)[C@@H](NC(=O)Oc1ccc(F)cc1)c1ccc(C(=O)OC)cc1 | MET |
| CC(C)C[C@@H]1NC(=O)[C@H]2C[C@@H](C(=O)NCCCCCCN)[C@@H](c3ccc(O)cc3)N2C1=O | NOT MET |
| CCCCCN1CC=CC23O[C@@H]4/C=C\CCCOC(=O)C4[C@H]2C(=O)N(C(CO)C(C)C)[C@@H]3C1=O (some centres not stated) | NOT MET |
| C=CCNC(=O)[C@@H]1[C@H]2C(=O)O[C@H](c3ccccc3)[C@H](c3ccccc3)N2[C@H](c2ccc(OCCO)cc2)[C@@]12C(=O)Nc1ccc(C#Cc3ccc(OC)cc3)cc12 | MET |
| O=C1NC(=O)C2C1C=CC(C(O)C(c1ccccc1)c1ccccc1)N2Nc1ccc(Cl)cc1Cl (configuration not stated) | MET |
| COCCOC(=O)N1C(=O)[C@@]2(c3ccccc31)[C@H](c1ccc(O)cc1)N1[C@H](c3ccccc3)[C@H](c3ccccc3)OC(=O)[C@H]1[C@@H]2C(=O)NC[C@H](O)c1ccccc1 | NOT MET |
| CCOc1cc(C(O)C2C=CC3C(=O)N(c4ccccc4)C(=O)C3N2Nc2ccccc2)ccc1O (configuration not stated) | MET |

----------
experiment: small-molecule microarray binders of probe aLefty2, primary screen, biochemical, biotinylated probe, 635/667 nm fluorescence (AID 1094); settings: higher = more signal;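 also: score merges spot fluorescence near 667 nm with spot signal-to-noise ratio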
# reported composite z-score; entries follow

| molecule | composite z-score |
| --- | --- |
| C=CCOC(=O)[C@H]1[C@@H]2C(=O)O[C@@H](c3ccccc3)[C@@H](c3ccccc3)N2[C@@H](c2ccc(OCCOC(=O)[C@@H]3C[C@@H]4C(=O)N[C@@H](CCCC[N+](C)(C)C)C(=O)N4[C@@H]3c3ccc(O)cc3)cc2)[C@]12C(=O)Nc1ccccc12 | 0.236 |
| C=CCN1C(=O)[C@]2(O[C@H](CCO)[C@@H]([Si](C)(C)c3ccc(OC)cc3)[C@@H]2C)c2cc(N3CCCCC3=O)ccc21 | -0.106 |
| COCCOC(=O)N1C(=O)[C@@]2(c3cc(C#Cc4ccc(OC)cc4)ccc31)[C@H](c1ccccc1OCCO)N1[C@H](c3ccccc3)[C@H](c3ccccc3)OC(=O)[C@H]1[C@@H]2C(=O)N1CCN(c2ncccn2)CC1 | -0.115 |
| C=C(C)C1C(=C)CN([C@H](CO)c2ccccc2)C1=O (stereo partly specified) | -0.0757 |
| O=C1O[C@H](c2ccccc2)[C@H](c2ccccc2)N2[C@H]1[C@@H](C(=O)NC[C@H](O)c1ccccc1)[C@]1(C(=O)Nc3ccccc31)[C@H]2c1ccc(OCCO)cc1 | -0.147 |
| CCN(CC)c1ccc(N2CC=CC34O[C@@H]5/C=C\CCCOC(=O)C5[C@H]3C(=O)N(CCO)[C@@H]4C2=O)cc1 (stereo partly specified) | -0.253 |
